Please respond with reported percentage damage caused to the plant, ABUTH for every item in the list.
Tested on: ABUTH
Test: Pre-emergence Test, ABUTH
Type: in vivo
Details: 1000 g/ha, evaluated after 13 days

Examples with answers:
[[record]]
inputsmiles = "CCOC(=O)c1nn(-c2ccc(OC(F)(F)F)cc2)c2cccc(-n3ncc(C(F)(F)F)n3)c2c1=O"
result = "0 (0=0%)"

[[record]]
inputsmiles = "CCOC(=O)c1nn(-c2ccc(OC(F)(F)F)cc2)c2cccc(C(F)F)c2c1=O"
result = "1 (1=10-20%)"

[[record]]
inputsmiles = "CCOC(=O)c1nn(-c2ccc(OC(F)(F)F)cc2)c2cccc(CC=O)c2c1=O"
result = "0 (0=0%)"


Next:
percentage damage caused to the plant, ABUTH reported for this compound CCOC(=O)c1nn(-c2ccc(OC(F)(F)F)cc2)c2cccc(-c3cc(C(F)F)on3)c2c1=O : 0 (0=0%)

* * *

System: Echinochloa crus-galli (ECHCG)
Experiment: Pre-emergence Test, ECHCG
Format: in vivo
Details: 1000 g/ha, evaluated after 13 days
Please respond with reported percentage damage caused to the plant, ECHCG for every item in the list.

[[record]]
compound = "CCOC(=O)c1nn(-c2ccc(OC(F)(F)F)cc2)c2cccc(-n3cc(C(F)(F)F)cn3)c2c1=O"
result = "0 (0=0%)"


Provide reported percentage damage caused to the plant, ECHCG for each item, in the same order as listed.
1. COC(=O)c1nn(-c2ccc(OC(F)(F)F)cc2)c2cccc(C#N)c2c1=O
2. CCOC(=O)c1nn(-c2ccc(OC(F)(F)F)cc2)c2cccc(/C(C)=N/O)c2c1=O
3. CCOC(=O)c1nn(-c2ccc(OC(F)(F)F)cc2)c2cccc(N3CCCC3)c2c1=O
4. CC(=O)c1cccc2c1c(=O)c(C(=O)O)nn2-c1ccc(OC(F)(F)F)cc1
5. C=C(OC)c1cccc2c1c(=O)c(C(=O)OC)nn2-c1ccc(OC(F)(F)F)cc1
6. O=C(O)c1nn(-c2ccc(OC(F)(F)F)cc2)c2cccc(-n3cc(C(F)(F)F)cn3)c2c1=O
7. COC(=O)c1nn(-c2ccc(OC(F)(F)F)cc2)c2cccc(C(C)=O)c2c1=O

["2 (2=21-40%)", "4 (4=61-80%)", "0 (0=0%)", "5 (5=81-100%)", "5 (5=81-100%)", "0 (0=0%)", "5 (5=81-100%)"]

Provide reported percentage damage caused to the plant, ECHCG for each item, in the same order as listed.
1. CO/N=C(\C)c1cccc2c1c(=O)c(C(=O)OC)nn2-c1ccc(OC(F)(F)F)cc1 [Compound P1]
2. O=C(O)c1nn(-c2ccc(OC(F)(F)F)cc2)c2cccc(-n3cc(C(F)(F)F)nn3)c2c1=O
3. O=C(O)c1nn(-c2ccc(OC(F)(F)F)cc2)c2cccc(-c3cc(C(F)F)on3)c2c1=O
4. CCOC(=O)c1nn(-c2ccc(OC(F)(F)F)cc2)c2cccc([N+](=O)[O-])c2c1=O
5. CCOC(=O)c1nn(-c2ccc(OC(F)(F)F)cc2)c2cccc(N3CCOCC3)c2c1=O

1: 5 (5=81-100%); 2: 1 (1=10-20%); 3: 0 (0=0%); 4: 2 (2=21-40%); 5: 0 (0=0%)

Provide reported percentage damage caused to the plant, ECHCG for each item, in the same order as listed.
1. CCOC(=O)c1nn(-c2ccc(OC(F)(F)F)cc2)c2cccc(CC=O)c2c1=O
2. C=C(OCC)c1cccc2c1c(=O)c(C(=O)OCC)nn2-c1ccc(OC(F)(F)F)cc1
3. COc1ccc(-n2nc(C(=O)O)c(=O)c3c(C#N)cccc32)cc1OC

0 (0=0%)
4 (4=61-80%)
0 (0=0%)

Recorded values, source patent US12649722B2.
